B1: C2orf65 (parent)
chain: QLDWDELETNQQHFHALCHSLLVS

Variants of: B1
protocol.text: protein stability index of a GFP-peptide fusion (GPS, HEK-293T) (PSI 1-6); higher = more stable;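 note: lentivirally expressed fusions sorted by FACS into six bins by GFP to DsRed ratio, PSI derived from sequencing read proportions per bin multiplied by bin number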
study.conditions: c terminus: a fixed tail appended
Listing of entries alongside the reported protein stability index.

seq.text	protein stability index
QLDWDELETNQQHFHALRHSLLVS [C18R]	2.48
QLDWDQLETNQQHFHALCHSLLVS [E6Q]	1.84
QLDWDELETNQQHFHALCMSLLVS [H19M]	1.66
QLDPDELETNQQHFHALCHSLLVS [W4P]	2.02
QLDWDELETSQQHFHALCHSLLVS [N10S]	2.2
QLDWDELETHQQHFHALCHSLLVS [N10H]	2.17
QLDWDELRTNQQHFHALCHSLLVS [E8R]	1.99
QLDWDELETNQQHFHALCISLLVS [H19I]	1.79
QLDWDELETNTQHFHALCHSLLVS [Q11T]	2.04
QLDWDELETNQGHFHALCHSLLVS [Q12G]	2.69
QCDWDELETNQQHFHALCHSLLVS [L2C]	1.95
QLDWDFLETNQQHFHALCHSLLVS [E6F]	3.45
QLDWDELETNQYHFHALCHSLLVS [Q12Y]	1.48
QLDWTELETNQQHFHALCHSLLVS [D5T]	2.18
QLDWDEGETNQQHFHALCHSLLVS [L7G]	2.6
QLDWDECETNQQHFHALCHSLLVS [L7C]	2.5
QLDWDELETAQQHFHALCHSLLVS [N10A]	2.04
QLDWDELETDQQHFHALCHSLLVS [N10D]	2.87
QLDWDKLETNQQHFHALCHSLLVS [E6K]	1.46
QLDWDELEMNQQHFHALCHSLLVS [T9M]	2.35
QLDWDELEPNQQHFHALCHSLLVS [T9P]	1.91
QLDWDELETNQQLFHALCHSLLVS [H13L]	1.99

This collection of values is drawn from the supplement of paper PMC10567573.
